Tested on: EKVX NSCLC
assay.procedure: NCI tumour cell line growth inhibition, 48 h
Entries annotated with measured GI50

smi	measured.quantity	result
OCCCN=NNc1ccc(-c2nc3ccccc3[nH]2)cc1	GI50	15.5 µM
O=C(OCc1ccccc1)N1CCN(/[N+]([O-])=N/Oc2ccc([N+](=O)[O-])cc2[N+](=O)[O-])CC1	GI50	16.7 µM
COc1ccc(Nn2c(SCC(=O)Nc3nc(-c4ccc(Cl)cc4)cs3)nc(C)c2C)cc1	GI50	1.92 µM

As a next step, examine the molecule that follows.
Return value of GI50 for input CCOC(=O)c1sc2nc3sc(N=Nc4ccc(Cl)cc4)c(O)n3c(=S)c2c1C , no commentary.
5.43 µM

----------
Tested on: NCI-H226 lung
assay.procedure: NCI tumour cell line growth inhibition, 48 h
Listed next: entries and their corresponding TGI.

molecule	TGI
COCC1OC(OC2C3=C(C(C)C)CCC3(C)/C=C3\C(CCC3(O)COC)C(C)C2O)C(O)C2OC3OC12OC3(C)C1CO1 (configuration not stated)	43.1 µM
CSc1nc(-c2cc3c(c(SC)n2)CCCCC3)cc2c1CCCCC2	> 100 µM
CC1OC(OC2C(O[C@H]3CC[C@@]4(C)[C@@H](CC[C@@H]5[C@@H]4CC[C@]4(C)[C@@H]6[C@H](C[C@@H]54)O[C@]4(CC[C@@H](C)CO4)[C@H]6C)C3)OC(CO)C(OC3OC(CO)C(O)C(OC4OCC(O)C(O)C4O)C3OC3OCC(O)C(O)C3O)C2O)C(O)C(O)C1O (some centres not stated)	3.58 µM
Nc1nc(SCCNC(=O)CCc2ccc(O)cc2)nc2c1ncn2C1OC(CO)C(O)C1O (configuration not stated)	> 203 µM
CC(C)c1ccccc1NC(=O)C(=O)Cc1nc2ccccc2s1	> 100 µM
COc1cc(C(=O)/C=C/c2cc(C(=O)c3cc(OC)c(OC)c(OC)c3)ccc2OC)ccc1N	7.39 µM

Could you please provide reported TGI for NC(=O)N1N=C2c3ccccc3CC[C@@H]2C1c1ccccc1 (some centres not stated) ? Thanks!
> 100 µM

Recall and state the measured TGI for COC1(OC)CC2C=C(S(=O)(=O)c3ccccc3)C1N(Cc1ccccc1)C2=O (configuration not stated) .
75.9 µM

Fill in TGI for record CON(C)C(C#N)=C(C#N)C#N
> 10 µM

Please indicate TGI recorded for COc1cccc(NC(=S)Nn2c(C)nc3ccccc3c2=O)c1
> 100 µM

Please indicate TGI recorded for CCCC/C=C/C1Cc2ccccc2CN1S(=O)(=O)c1ccc(C)cc1 (configuration not stated)
25.8 µM

----------
System: K-562 leukemia
assay.procedure: NCI tumour cell line growth inhibition, 48 h
measured.quantity: TGI

compound	result
N/N=C1\C(=O)N(C2CCCCC2)C(=O)C1C(=O)NC1CCCCC1 (centres undefined)	> 100 µM

Identify TGI associated with the compound N#Cc1c(-c2ccc(Cl)cc2)n(O)c2ccccc12
> 100 µM

Indicate the recorded TGI value for this compound: CC1=C2C(=O)[C@H]3[C@@H](CC=C4C[C@@H](O)CC[C@@]43C)[C@@H]2CC[C@]12O[C@@H]1C[C@H](C)CN[C@H]1[C@H]2C
> 100 µM

Given CC(=O)O/N=C/c1ncccc1OC(C)=O , respond with its TGI.
> 100 µM

// fetch TGI given entry COC(OC)c1cccc2c1C(=O)CCC1(O)c3ccccc3C1C2 (centres undefined)
> 100 µM

Please report TGI for the following compound: S=C(N/N=C(/c1ccccc1)c1ccccn1)Nc1ccccc1Cl
> 5.82 µM

Assign TGI to the following record: COc1cc2c(c(C)c1O)[C@H]1COc3ccccc3[C@H]1O2
56.5 µM

Output measured TGI for this item: CN(C)c1ccc(N=Cc2c([O-])ccc3ccccc23)cc1.[C-]#[O+].[C-]#[O+].[Ir]
> 100 µM

Let me know recorded TGI for CCc1n[nH]c(=O)n1/N=C/c1ccccc1Cl , thanks.
> 100 µM

Name the recorded TGI of the item Cc1c(CCOC=O)c(=O)[nH]c2nncn12 in your answer.
> 100 µM

Specify measured TGI for CC(C)(C)c1ccc(-c2nc3ccc([N+](=O)[O-])cc3c(=O)o2)cc1 .
71.3 µM

Item CC(C)(C)[Si](C)(C)OCC1OC(n2cnc3c(NC(=O)c4ccccc4)ncnc32)CC1O (centres undefined) : provide TGI
48.2 µM

Write down TGI measured for item CC(C)(C)NN=C1C(C)(C)C(=NNC(C)(C)C)C1(C)C
> 100 µM
